Cited source for all entries: patent US20240124455A1

Give log10 IC50 for every item shown.
- Tested On: BRD4 (BD1) (Homo sapiens)
- Construct: purchased Reaction Biology Company RD-11-157
- Measurement Notes: BRD4 (BD1) binding assay (HTRF)
- Condition: BRD4 (D1) with GST tag and biotin-labeled acetylated peptide
Remember, log10 of IC50, in nM.

compound [2H]C([2H])([2H])c1nnn(C)c1-c1cnc2c3nn(C([2H])([2H])[2H])c(C(C)(C)O)c3n(C(c3ncccc3F)C3CCOCC3)c2c1 (single isomer, unassigned) [Example 23] , log10 IC50 observed: 0.64

Respectfully, I request log10 IC50 for each entry included below.
1. Cc1nnn(C)c1-c1cnc2c3nn(C)c(C(C)(C)O)c3n([C@@H](c3ccccn3)C3CCOCC3)c2c1
2. Cc1nnn(C)c1-c1cnc2c3nn(C)c(C(C)(C)O)c3n(C(c3ncccc3F)C3CCOCC3)c2c1 (racemic) [Example 10]
3. Cc1nnn(C)c1-c1cnc2c3nn(C)c(C(C)(C)O)c3n(C(c3ncccc3F)C3CCOCC3)c2c1 (single isomer, unassigned) [Example 12]

Result:
0.92
-0.21
-0.72

Batch request: log10 IC50 per item, same order as input.
1. Cc1nnn(C)c1-c1cnc2c3nn(C)c(C(C)(C)O)c3n(C(c3ccccc3)C3CCOCC3)c2c1 (single isomer, unassigned) [Example 4]
2. [2H]C([2H])([2H])n1nc2c3ncc(-c4c(C)nnn4C)cc3n(C(c3ncccc3F)C3CCOCC3)c2c1C(C)(C)O (single isomer, unassigned) [Example 15]

Result:
1: -0.74; 2: 0.68

----------
- Tested On: BRD4 (BD1) (Homo sapiens, UniProt O60885)
- Construct: purchased Reaction Biology Company RD-11-157
- Measurement Notes: BRD4 (BD1) binding assay (HTRF)
- Condition: BRD4 (D1) with GST tag and biotin-labeled acetylated peptide
Would you mind telling me the reported log10 IC50 of each entry?
Plainly stated, the numbers are log10 of IC50 given in nM.

# example entries with known answers
Given the molecule [2H]C([2H])([2H])c1nnn(C)c1-c1cnc2c3nn(C)c(C(C)(C)O)c3n(C(c3ncccc3F)C3CCOCC3)c2c1 (racemic) [Example 18] and test system BRD4 (BD1) (Homo sapiens, UniProt O60885), the measured log10 IC50 is -0.28

Value (log10 IC50, BRD4 (BD1) (Homo sapiens, UniProt O60885)) for record [2H]C([2H])([2H])n1nc2c3ncc(-c4c(C)nnn4C)cc3n(C(c3ncccc3F)C3CCOCC3)c2c1C(C)(C)O (racemic) [Example 14] = -0.28

Here Cc1nnn(C)c1-c1cnc2c3nn(C)c(C(C)(C)O)c3n(C(c3ccccc3)C3CCOCC3)c2c1 (single isomer, unassigned) [Example 3] was tested on BRD4 (BD1) (Homo sapiens, UniProt O60885), and its log10 IC50 came to 0.26

BRD4 (BD1) (Homo sapiens, UniProt O60885) assay, molecule [2H]C([2H])([2H])c1nnn(C)c1-c1cnc2c3nn(C([2H])([2H])[2H])c(C(C)(C)O)c3n(C(c3ncccc3F)C3CCOCC3)c2c1 (racemic) [Example 22] , recorded log10 IC50 = -0.47

Simply: Cc1nnn(C)c1-c1cnc2c3nn(C)c(C(C)(C)O)c3n(C(c3ncccc3F)C3CCOCC3)c2c1 (single isomer, unassigned) [Example 11] , BRD4 (BD1) (Homo sapiens, UniProt O60885), log10 IC50 = 0.83

Case COC(=O)c1c2c(nn1C)c1ncc(-c3c(C)nnn3C)cc1n2C(c1ncccc1F)C1CCOCC1 (centres unmarked) [Example 9] , BRD4 (BD1) (Homo sapiens, UniProt O60885), log10 IC50 recorded as -0.29

Tested system BRD4 (BD1) (Homo sapiens, UniProt O60885); log10 IC50 recorded for [2H]C([2H])([2H])n1nc2c3ncc(-c4c(C)nnn4C)cc3n(C(c3ncccc3F)C3CCOCC3)c2c1C(C)(C)O (single isomer, unassigned) [Example 16] was -0.74

We next turn to a different molecule, shown below.
BRD4 (BD1) (Homo sapiens, UniProt O60885) log10 IC50 of Cc1nnn(C)c1-c1cnc2c3nn(C)c(C(C)(C)O)c3n(C(c3ccccn3)C3CCOCC3)c2c1 (racemic) [Example 6] is -0.21
